# Assay Notes: qHTS for Inhibitors of the Functional Ribonucleoprotein Complex (vRNP) of Lassa (LASV) Arenavirus: Viability assay - alamar blue signal for LASV Primary Screen (AID 1347083); further: nearly all actives have a fitted effect of over 80% in size
# Experimental Context: cell viability, alamar blue fluorescence (LASV minigenome counter-screen); series mostly up to 57.5 µM
Results filed as inconclusive are left out. Calls of active or inactive are those of the source. The call rests on the fitted dose curve; tested in HEK293 reporter line.
Outcome field: choose from True for active, False for inactive

As a guide, the following entries are already answered.
CN(C)CCC(c1ccc(Br)cc1)c1ccccn1 (stereo not given) :: False
CCN1CC2(COC(=O)c3ccccc3N)CCC(OC)C34C5CC6C(OC)CC(O)(C5C6OC)C(O)(C(OC)C23)C14 (stereo not given) :: False
NC[C@H]1O[C@@H](n2cnc3c(N)ncnc32)[C@H](O)[C@@H]1O :: False
Clc1ccc(COC(Cn2ccnc2)c2ccc(Cl)cc2Cl)c(Cl)c1 (stereo not given) :: False
Nc1nc(N)c2[nH]cnc2n1 :: False

Ask | Please state the recorded outcome for this molecule: COc1c(C)c2c(c(O)c1CC=C(C)CCC(=O)O)C(=O)OC2
Reply | True

Ask | How about this molecule: CC1=C(CC(=O)O)c2cc(F)ccc2C1=Cc1ccc(S(C)=O)cc1 (stereo not given)
Reply | True

Ask | How about this molecule: C/C=C(\C)C(=O)O[C@H]1C[C@@]2(C)CCC(C(C)C)C2(O)CC[C@@]1(C)O (stereo not given in full)
Reply | False

Ask | How about this molecule: NC[C@H]1O[C@H](O[C@@H]2[C@@H](O)[C@@H](O[C@H]3O[C@H](CO)[C@@H](O)[C@H](N)[C@@H]3O)[C@H](N)C[C@@H]2N)[C@H](O)[C@@H](O)[C@H]1O
Reply | False

Ask | How about this molecule: CC1(C)C[C@H]2C3=CCC4[C@@]5(C)CC[C@H](O)[C@](C)(CO)C5CC[C@@]4(C)[C@]3(C)C[C@H]3O[C@@H]1[C@H](O)[C@]32CO (stereo not given in full)
Reply | False

Ask | How about this molecule: COc1ccc2c(c1)c(C1=C(c3c[nH]c4ccccc34)C(=O)NC1=O)cn2CCCN(C)C
Reply | True

Ask | How about this molecule: COc1c2c(c(OC)c3c1c(=O)c1ccccc1n3C)OCO2
Reply | False

Ask | How about this molecule: CC[C@@]1(O)C(=O)OCc2c1cc1n(c2=O)Cc2cc3cc(O)ccc3nc2-1
Reply | True

Ask | How about this molecule: Nc1nc(N)c(N=O)c(OCC2CCCCC2)n1
Reply | True

Ask | How about this molecule: Nc1ncnc2c1ncn2[C@H]1O[C@H](CO)[C@@H](O)[C@@H]1O
Reply | False

Ask | How about this molecule: COc1cc(C(=O)OC2C[C@H]3CC[C@@H](C2)N3)ccc1O (stereo not given in full)
Reply | False

* * *

# Assay Notes: Primary qHTS to identify inhibitors of SARS-CoV-2 cell entry (AID 1645846); further: nearly all actives have a fitted effect of over 45% in size
# Experimental Context: SARS-CoV-2 pseudovirus cell entry assay, luminescence; series mostly up to 57.1 µM
# Description: Assay Provider: Wei Zheng, Ph.D. National Center for Advancing Translational Sciences, National Institute of Health, Rockville, MD. SARS-CoV-2 spike protein, within the viral envelope, mediates viral attachment and infection of host cells. The SARS-CoV-2 spike protein specifically binds to the host receptor ACE2 (Angiotensin-converting enzyme 2). […] 11. […] Read luminescence signal (Viewlux plate reader, PerkinElmer). […]
Results filed as inconclusive are left out. Active and inactive are the calls of the source. Calls follow the shape of the full dose curve.
Outcome field: choose from True (active), False (inactive)

CCN1CCN(c2ccc(Nc3cc(N(C)C(=O)Nc4c(Cl)c(OC)cc(OC)c4Cl)ncn3)cc2)CC1 :: False
CC(C)[C@H](CO)Nc1nc(Nc2cccc(Cl)c2)c2ncn(C(C)C)c2n1 :: True
COCCCc1sc(-c2ccccc2)nc1C(=O)Nc1ccccc1-c1nc2cc(CN3CCCC3)cnc2s1 :: False

Ask | Please state the recorded outcome for this compound: CC(N[C@H]1CCCC[C@H]1NC(=O)c1ccc(Cl)cc1)c1cccc2ccccc12 (some centres undefined)
Reply | True

Ask | How about this compound: Cc1cc(Nc2cc(NC(=O)c3c(Cl)cccc3Cl)ccn2)nc(N)n1
Reply | True
